test.target: IDO1 (Homo sapiens)
Sequence (P14902 whole entry): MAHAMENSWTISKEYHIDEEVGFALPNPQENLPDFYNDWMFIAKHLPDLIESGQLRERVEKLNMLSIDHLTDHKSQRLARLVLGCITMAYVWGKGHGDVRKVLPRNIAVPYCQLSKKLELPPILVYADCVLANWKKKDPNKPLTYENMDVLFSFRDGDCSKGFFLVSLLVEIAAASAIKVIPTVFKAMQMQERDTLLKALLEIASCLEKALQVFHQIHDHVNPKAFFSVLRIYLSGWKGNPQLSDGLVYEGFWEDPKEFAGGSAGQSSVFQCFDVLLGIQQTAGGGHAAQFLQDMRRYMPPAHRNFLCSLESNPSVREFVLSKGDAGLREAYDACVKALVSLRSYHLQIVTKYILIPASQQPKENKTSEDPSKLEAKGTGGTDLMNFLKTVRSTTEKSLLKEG
test.protocol: IDO1 Human Whole blood Assay
Format: cell-based
Parameters: Human whole blood was drawn in sodium heparin coated tubes from healthy internal donors; from tissue; host or cells: human whole blood from healthy donors, stimulated with LPS and IFNγ
run.parameters: LPS and IFNγ stimulated, 18 h, read-out: Human Whole Blood Potency, IC50
observation.type: log10 IC50 (log10 of the value in nM)
Use the decimal logarithm of IC50 (nM).

Challenge: Return value of log10 IC50 for input Cc1cccc(N2CCN(C(=O)Cn3nc(C(=O)N4CCCC4)c4c3CCC4)CC2)c1C [Example 1] , no commentary.
Response given: 3.26

Challenge: Return value of log10 IC50 for input Cc1cccc(N2CCN(C(=O)Cn3nc(C(=O)N4CC[C@@H](O)[C@@H](F)C4)c4c3CC(F)C4)CC2)c1C (single isomer, unassigned) [Example 419] , no commentary.
Response given: 3.06

Challenge: Return value of log10 IC50 for input Cc1cccc(N2CCN(C(=O)Cn3nc(C(=O)N4CC[C@H](O)[C@@H](C)C4)c4c3CCC4)CC2)c1C [Example 109] , no commentary.
Response given: 2.60

Challenge: Return value of log10 IC50 for input Cc1c(Cl)cccc1N1CCN(C(=O)Cn2nc(C(=O)N3CCC(OCCO)CC3)c3c2CCC(F)C3)CC1 (single isomer, unassigned) [Example 368] , no commentary.
Response given: 1.74

Challenge: Return value of log10 IC50 for input Cc1cccc(N2CCN(C(=O)Cn3nc(C(=O)N4CC[C@H](O)C(F)(F)C4)c4c3CCC4)CC2)c1C (single isomer, unassigned) [Example 201] , no commentary.
Response given: 3.26

Challenge: Return value of log10 IC50 for input Cc1cccc(N2CCN(C(=O)Cn3nc(C(=O)N4CCC(F)(CO)CC4)c4c3C[C@H]3C[C@@H]43)CC2)c1C [Example 286] , no commentary.
Response given: 1.64

Challenge: Return value of log10 IC50 for input Cc1cccc(N2CCN(C(=O)Cn3nc(C(=O)N4CCC(NC(=O)CO)CC4)c4c3CCCC4)CC2)c1C [Example 473] , no commentary.
Response given: 2.00

Challenge: Return value of log10 IC50 for input CC(=O)NC1CCN(C(=O)c2nn(CC(=O)N3CCN(c4cccc(C)c4C)CC3)c3c2[C@@H]2C[C@@H]2C3)CC1 [Example 229] , no commentary.
Response given: 2.35

Challenge: Return value of log10 IC50 for input Cc1cccc(N2CCN(C(=O)Cn3nc(C(=O)N4CCN(CC(N)=O)CC4)c4c3CCCC4)CC2)c1C [Example 454] , no commentary.
Response given: 1.83

Challenge: Return value of log10 IC50 for input CC(=O)NC1CCN(C(=O)c2nn(CC(=O)N3CCN(c4ccc(F)c(C)c4C)CC34CC4)c3c2[C@@H]2C[C@@H]2C3)CC1 [Example 320] , no commentary.
Response given: 2.54

Challenge: Return value of log10 IC50 for input Cc1cccc(N2CCN(C(=O)Cn3nc(C(=O)N4CC[C@@H](O)[C@H](C)C4)c4c3CCC4)CC2)c1C [Example 108] , no commentary.
Response given: 1.89

Challenge: Return value of log10 IC50 for input Cc1cccc(N2CCN(C(=O)Cn3nc(C(=O)N4CC[C@@H](O)[C@H](F)C4)c4c3CCCC4)CC2)c1C [Example 472] , no commentary.
Response given: 2.32

Challenge: Return value of log10 IC50 for input Cc1c(F)cccc1N1CCN(C(=O)Cn2nc(C(=O)N3CCC(OCCO)CC3)c3c2CCC3)CC1 [Example 456] , no commentary.
Response given: 2.01
